Test: Components of the Cytosolic LPS Sensing Pathway: Gene Identification via Genome-wide siRNA Screen;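 further: robust z of the log signal after scaling to non-targeting control siRNA wells of the plate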
Conditions: RAW264.7 macrophages, IL-1a HTRF, actives lie on both sides, screened at 100 nM (by protocol), cells primed 5 h with Pam3CSK4 first
The campaign covered roughly 53,000 sequences. About 3,700 (7%) were called active.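 How the source made its calls: active means gene knockdowns whose robust z-score for IL-1 alpha signal is at least 2 or at most -2, so actives lie on both sides; inactive means the rest.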 Many of the other results were omitted from the sample, so actives are more common in it than they were.
Outcome codes: active, inactive

Residue string | Assigned class
GGAAAGAAGAAGAGUCUAATT against Nucb2 | inactive
GGUCAAGUAACAUGGUUUGTT against Rundc3b | inactive
AGGCACGUCUGAUUGCAUGTT against LOC432823 | inactive
GGACAGUGGAAGGAAUCCATT against 2310033P09Rik | active
GCCGUCACAAGAACUGAACTT against Apon | inactive
GGCUCAAAGCCAAUCUGAATT against Recql4 | active
GGCUGCUCAAAAAGAACAUTT against Kif21b | inactive
GGCAUAUGCACUUUAUUUCTT against Cep97 | inactive
GGCCAGAGUAUCGAUGUUCTT against Slc25a14 | inactive
GUGUAGCUCUUCACAGUUATT against Fgf2os | inactive
CCACUUUAAAGGCUCUUCUTT against H3c8 | active
CGCUGCUUUUCCUAGCAGATT against Orai1 | inactive

====

Test: Components of the Cytosolic LPS Sensing Pathway: Gene Identification via Genome-wide siRNA Screen;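 further: robust z of the log signal after scaling to non-targeting control siRNA wells of the plate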
Settings: RAW264.7 macrophages, IL-1a HTRF, actives lie on both sides, screened at 100 nM (by protocol), cells primed 5 h with Pam3CSK4 first
Out of some 53,000 sequences screened, about 3,700 (7%) were called active.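 How the source made its calls: active means gene knockdowns whose robust z-score for IL-1 alpha signal is at least 2 or at most -2, so actives lie on both sides; inactive means the rest.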 Many of the other results were omitted from the sample, so actives are more common in it than they were.
Outcome codes: yes (1) for active, no (0) for inactive

Residue string | Assigned class
GGACUGUUUACUCAGCUCATT against Slc25a33 | yes (1)
GCUUCAUCCUAGCGGUUUGTT against Dad1 | no (0)
CGUGACUCUGCUUUAACUCTT against Col27a1 | yes (1)
GGUUUAAGAAUGAAGUGGATT against Mtmr3 | no (0)
GGAAAACAGUGGUAGCUUATT against Cnp | no (0)
GCACUGCAACACUUGGUCCTT against Lcn12 | no (0)
GCGAUUUGUGGUUCUCAUATT against Rnf103 | no (0)
CCAAUAAAAGUUGAGAGCUTT against Krt18 | no (0)
CCCACUUCCGAUCCAAAGATT against Zfp593 | no (0)
GCCCUCAUUUGUCCUACAUTT against Arhgef2 | no (0)
CCCAGUUGCUAUGCUUGACTT against Defb37 | no (0)
GGAACAGUAUAUAAGUUCATT against Hcfc2 | no (0)
GGAAAGACCACCAAAUCCCTT against Dpy30 | no (0)
GGGAGAAAUGCAAAUAUUUTT against Mbnl2 | no (0)
GAUGAAAGCUACAAUGAAGTT against Srpx2 | no (0)
GCCUCUGAGUUGCAUGAGUTT against Ppp2r5b | no (0)
GCCCAUUAUGAAACUGAAGTT against Nfatc3 | no (0)
GAAACUUUGAGUCCUCCAGTT against Dop1b | yes (1)
GCAUGUAGACUACAACGUGTT against Myoz1 | no (0)
GGCAAAGCACCUUUAUCUGTT against G430095P16Rik | no (0)
GGUGAUUUAGUUGUGUAAATT against Calcr | no (0)
GGAGGUAACAACAACAGAATT against BC028528 | no (0)
GUUGAUGGAAACCAUGGAATT against Phf11d | no (0)
CCAAUAAAAGUGCACACCUTT against Actb | yes (1)
CGGGCUAUCUGGAACUAUATT against Sesn1 | no (0)
CGCACUUACCGUGUCCUAUTT against Homer3 | no (0)
GGUUCGUGUGGUUUAACAUTT against Afg3l1 | no (0)
GGCUCAAGACUUAAAUUCATT against Olfr1100 | no (0)
GCAUAUGACACCGUAUCAGTT against Gprc5d | no (0)
GGUUUGAUGACAAAUACACTT against Spcs2 | no (0)
CCAUCAACCCAUCAUGUGCTT against Pitpnc1 | no (0)
GGAGCGAGUAGACAUUCUGTT against Rdh13 | no (0)
GGUGAGCUUGGUUUCUAAATT against Gdf15 | yes (1)
GGAGAGGGUCUUAGUCAGATT against Wasf1 | no (0)
GCACUGAGCUUGACAAAGATT against Upp2 | no (0)
GGUGCAGUUGAACUUCUACTT against Dnajc1 | yes (1)
GCAGAAAUUAACAAGUCUCTT against Kif2c | no (0)
GGAUCUCCUGCUUGAACUGTT against Adam33 | yes (1)
GGAAGAUGAGAAAAUUCCATT against Ccni | no (0)
GGAUGAUCGGCACUAUAACTT against Otulin | no (0)
GGAUGUUGGUACUUUUUGATT against Pwp1 | no (0)
CGAUUUUCACCAAUUGUGGTT against Diaph2 | yes (1)
GGAGAAAGAGAAAAUCGCUTT against Csnk1g2 | no (0)
GAACGUGCAGCUGACAGAGTT against Ppp1ca | no (0)
GCUGGUGAGUCACUGAUGATT against Med22 | no (0)
GGACCAGGAUAGGACCAAUTT against Avpr2 | yes (1)
GGAAGAAAACAGCGAUUUGTT against Ppp1r15a | no (0)
GGCUGACUCGCUUUCACCATT against Efna2 | no (0)
CCCUCAGGACACGUUUUAGTT against Wdsub1 | yes (1)
GGAGCAUCAUUUUAACACUTT against Tubd1 | no (0)
